- Test system: MSV
- assay.protocol: Inhibition of MSV (in vitro)
- Type: cell-based, Moloney Sarcoma Virus
- conditions: Table 6
pEC50: −log10 of the molar value.
metric.name: pEC50

Cc1cn(C2C=CC(COP(=O)(O)NC(CCC(=O)O)C(=O)O)O2)c(=O)[nH]c1=O (stereo not drawn): 4.26
Cc1cn(C2C=CC(COP(=O)(Oc3ccccc3)N3CCCC3C(=O)OCc3ccccc3)O2)c(=O)[nH]c1=O (stereo not drawn): < 4.00

// below: pEC50 requested for another molecule
MSV / pEC50 / COC(=O)[C@@H](C)NP(=O)(OCC1C=CC(n2cc(C)c(=O)[nH]c2=O)O1)Oc1ccccc1 (stereo partly drawn) : value?
≤ 4.00

====

- assay.protocol: Minimum cytotoxic concentration in MSV assay
- Assay type: cell-based
- conditions: Table 6
metric.name: MCC MSV: Minimum cytotoxic concentration in MSV assay

// known answers, use as guide
Cc1cn(C2C=CC(COP(=O)(Oc3ccccc3)N3CCCC3C(=O)OCc3ccccc3)O2)c(=O)[nH]c1=O (stereo not shown): >100
COC(=O)[C@@H](C)NP(=O)(OCC1C=CC(n2cc(C)c(=O)[nH]c2=O)O1)Oc1ccccc1 (stereo partly shown): >100
COC(=O)C(OP(=O)(OCC1C=CC(n2cc(C)c(=O)[nH]c2=O)O1)Oc1ccccc1)c1ccccc1 (stereo not shown): >100

# evaluate next
Can you look up the measured MCC MSV: Minimum cytotoxic concentration in MSV assay of CCOC(=O)CCNP(=O)(OCC1C=CC(n2cc(C)c(=O)[nH]c2=O)O1)Oc1ccccc1 (stereo not shown) for me?
>100

====

- Tested on: CEM cells
- assay.protocol: Toxicity to CEM cells
- Format: cell-based, human
- conditions: Table 6; mean of two or more repeat experiments
Listed here: items and their measured CC50.
Report the value in µM with no unit label.

Data request, read-out CC50, for CO[PH](=O)OCC1C=CC(n2cc(C)c(=O)[nH]c2=O)O1 (stereo not shown)
146

// query CC50 value for entry CCCCCCO[PH](=O)OCC1C=CC(n2cc(C)c(=O)[nH]c2=O)O1 (stereo not shown)
150

====

- assay.protocol: Toxicity to MT-4 cells
- Assay type: cell-based, human
- conditions: human, mock-infected MT-4 cells; Table 6; mean of two or more repeat experiments; read-out: CC50 MT4: CC50 for toxicity to MT-4 cells
metric.name: CC50 at 5 days

Any idea what its CC50 at 5 days is? The compound is COC(=O)C(C)NP(=O)(OCC1C=CC(n2cc(C)c(=O)[nH]c2=O)O1)Oc1ccccc1 (stereo not shown) [Compound 324]
> 100 µM

====

- Tested on: HIV-1
- assay.protocol: microbe, parasite or virus in culture
- conditions: read-out: HIV1 CEM: EC50 for inhibition of HIV-1 in CEM cells; Table 6; mean of two or more repeat experiments
- Procedure: Cells were infected with HIV-1 as previously described [Balzarini et al. AIDS (1991), 5, 21–28]. Briefly, 5×10^5 cells per milliliter were infected with HIV-1 or HIV-2 at 100 CCID50 (50% cell culture infective dose) per milliliter of cell suspension. […] After 4 days giant cell formation was recorded microscopically in the HIV-infected cell cultures [CEM], and after 5 days the number of viable cells was determined by trypan blue staining of the HIV-infected cell cultures [MT4]. […]
pEC50: −log10 of the molar value.
metric.name: pEC50

Below, 5 compounds whose answers are already recorded.
CCNP(=O)(OCC1C=CC(n2cc(C)c(=O)[nH]c2=O)O1)OCC(Cl)(Cl)Cl (stereo not drawn) [Compound 403]: < 3.67
O=c1ccn([C@H]2C=C[C@@H](CO)O2)c(=O)[nH]1 [Compound 446, reference compound]: < 4.02
Cc1cn(C2C=CC(COP(=O)(NC(C)C(=O)Oc3cccc4ccccc34)Oc3ccccc3)O2)c(=O)[nH]c1=O (stereo not drawn) [Compound 1226]: > 7.10
CCCCCCCCCCCCNP(=O)(OCC1C=CC(n2cc(C)c(=O)[nH]c2=O)O1)Oc1ccccc1 (stereo not drawn) [Compound 828]: < 5.00
CCCOP(=O)(N[C@@H](C)C(=O)OC)OC[C@@H]1C=C[C@H](n2cc(C)c(=O)[nH]c2=O)O1 (stereo partly drawn) [Compound 326]: < 3.64

Field: next compound
Give its pEC50 value. Item: CCCNP(=O)(OCC1C=CC(n2cc(C)c(=O)[nH]c2=O)O1)OCC(Cl)(Cl)Cl (stereo not drawn) [Compound 401]
< 3.68
